inhibition: recorded values
# Species: Rattus norvegicus
# assay.overview: Displacement of [3H]NPY from neuropeptide Y receptor in rat cerebral cortices membrane at 5 ug/mL
# Assay type: cell membranes
Provide the reading as a plain figure in %.

Request: Value lookup for inhibition; key = NCCc1c(C(CN)c2c[nH]c3cc(Br)ccc23)[nH]c2ccc(O)cc12 (racemic)
Result: 63

Request: GET /values?readout=inhibition&item= NCCc1c(C(CN)c2c[nH]c3cc(Br)ccc23)[nH]c2cc(C(CN)c3c[nH]c4cc(Br)ccc34)c(O)cc12 (stereo in doubt; form 1)
Result: 90

Request: Using the record for NCCc1c(C(CN)c2c[nH]c3cc(Br)ccc23)[nH]c2cc(C(CN)c3c[nH]c4cc(Br)ccc34)c(O)cc12 (stereo in doubt; form 2) , report its inhibition.
Result: 62

Request: Could you share which inhibition value was measured for NCCc1c(C(CN)c2c[nH]c3cc(Br)ccc23)[nH]c2cc(Br)ccc12 (racemic) ?
Result: 67
